- targetEntity: HLA-A*33:01
- protocolNotes: IEDB peptide-MHC binding, purified MHC/competitive/radioactivity; filed as Kd, often an IC50 or EC50 that approximates it; bounds were set here for any values at or beyond the usual limits of such assays
- conditionLabel: source organism: Vaccinia virus WR
valueType: Kd

Below, 5 sequences whose answers are already recorded.
residues: TIREFPRKDK
Kd: ≥ 40.9 µM
--
residues: KFISDNKKEY
Kd: ≥ 70 µM
--
residues: FIRRKYLIY
Kd: ≥ 52.4 µM
--
residues: ATLMKTSCSK
Kd: ≥ 70 µM
--
residues: TLNHVLALKY
Kd: ≥ 52.7 µM

IN: Missing value: Kd, HLA-A*33:01, entry RPDTRHLRVL . Fill in?
OUT: ≥ 70 µM

Data provenance is the Immune Epitope Database (IEDB).
